Collected residual activity values appear next to each entry.
Target: DYRK1A (human)
Assay: radiometric filter-binding kinase assay, Kinase HotSpot
Conditions: compound 0.5 µM; ATP 10 µM
# output: bare number, implied unit %

// below: answered molecules
{"columns": ["Smiles", "Target System", "residual activity, %"],
 "data": [
  ["O=C1Nc2ccc(Br)cc2/C1=C\\c1cc2c([nH]1)CCCC2", "DYRK1A (human)", 87.1],
  ["COc1cc(Nc2c(C#N)cnc3cc(OCCCN4CCN(C)CC4)c(OC)cc23)c(Cl)cc1Cl", "DYRK1A (human)", 99.4],
  ["CN(C)c1ccc(/C=C2\\C(=O)Nc3ccccc32)cc1", "DYRK1A (human)", 103],
  ["N#C/C(=C\\c1ccc(O)c(O)c1)C(=O)NCc1ccccc1", "DYRK1A (human)", 102]
]}

Need residual activity, item `CN(C)S(=O)(=O)c1ccc2c(c1)/C(=C/c1cc3c([nH]1)CCCC3)C(=O)N2`
81.1

Query `NC(=O)c1cccc(-c2cc(Nc3ccc(OC(F)(F)F)cc3)ncn2)c1` next
101

====

Biological target: EPHA3 (human)
Assay: radiometric filter-binding kinase assay, Kinase HotSpot
Settings: compound 0.5 µM; ATP 10 µM
residual activity for assorted compounds
API: value field is a number in %; no unit string.

{"columns": ["Smiles", "Readout Kind", "Units Text", "Value"],
 "data": [
  ["COc1cc2ncnc(Nc3ccc(OCc4ccccc4)cc3)c2cc1OC", "residual activity", "%", 98.1],
  ["COc1ccc(Cl)cc1NC(=O)Nc1cc(C)nc2ccccc12", "residual activity", "%", 99.1],
  ["CN(C)CCCn1cc(C2=C(c3c[nH]c4ccccc34)C(=O)NC2=O)c2ccccc21", "residual activity", "%", 93]
]}

# query: residual activity | item `COc1cc2ncnc(Nc3ccc(Oc4ccccc4)cc3)c2cc1OC` | system: EPHA3 (human)
101

Try this compound too: `COc1ccc(S(=O)(=O)N(CCO)c2ccccc2CN(C)C/C=C/c2ccc(Cl)cc2)cc1`
102

Entry to check: `Cn1c2ccccc2c2c3c(c4c5ccccc5n(CCC#N)c4c21)CNC3=O`
97.9

====

Target: TGFBR2 (human)
Experiment: radiometric filter-binding kinase assay, Kinase HotSpot
Settings: compound 0.5 µM; ATP 10 µM
// reported residual activity for each item listed
Give the value, in units of %, as a plain number.

Some compounds with recorded residual activity:
{"columns": ["Smiles", "Target System", "Units Text", "residual activity"],
 "data": [
  ["NC(=O)c1cccc(-c2cc(Nc3ccc(OC(F)(F)F)cc3)ncn2)c1", "TGFBR2 (human)", "%", 94.9],
  ["Cc1nc(-c2ccccc2)c(-c2ccncc2)o1", "TGFBR2 (human)", "%", 133],
  ["Ic1cccc(CSc2nnc(-c3ccncc3)o2)c1", "TGFBR2 (human)", "%", 121]
]}

Data request, read-out residual activity, for `Cc1cccc(-c2nc(C(C)(C)C)[nH]c2-c2ccc3c(c2)OCO3)n1`
105

Same for `CO[C@@H]1[C@H](N(C)C(=O)c2ccccc2)C[C@H]2O[C@]1(C)n1c3ccccc3c3c4c(c5c6ccccc6n2c5c31)C(=O)NC4`
99.1

Thanks! And `Cn1c2ccccc2c2c3c(c4c5ccccc5n(CCC#N)c4c21)CNC3=O` ?
117

Next entry: `COc1ccc(C(=O)Nc2sc3c(c2C(N)=O)CCCC3)cc1OC`
134

// query: `COc1ccc(Cl)cc1NC(=O)Nc1cc(C)nc2ccccc12`
111

// query: `Cc1cncc2cccc(S(=O)(=O)N3CCCN(C(=O)CN)C[C@H]3C)c12`
132

Entry to check: `Fc1ccc(-c2nc3n(c2-c2ccncc2)CCS3)cc1`
137

Okay, and `N#Cc1c[nH]c2c[nH]/c(=N\Cc3cccnc3)cc2/c1=N\c1ccc(F)c(Cl)c1` ?
118

Same thing, different compound: `O=C1NC(=O)c2c1c1c3ccccc3[nH]c1n1cncc21`
95.8

Let us now turn to `CN(C)CCCn1cc(C2=C(c3c[nH]c4ccccc34)C(=O)NC2=O)c2ccccc21`
90.4
